- Test system: Clostridium difficile ATCC 630
- PROTOCOL_DESCRIPTION: In vitro MIC, agar dilution, Clostridium difficile ATCC 630
- Assay type: cell-based
- EXPERIMENTAL_PARAMETERS: Clostridioides difficile, ATCC630; Brucella agar with supplements, anaerobic cultivation 48 h; read-out: MIC values, Clostridium difficile ATCC 630
# maps each entry to its MIC

{"COMPOUND": "CCCCCCCC(=O)Oc1ccccc1C(=O)Nc1ncc([N+](=O)[O-])s1 [Compound I-2]", "RESULT_UNIT": "µg/mL", "MIC": 0.0625}
{"COMPOUND": "CCCCCCCCCCCC(=O)Oc1ccccc1C(=O)Nc1ncc([N+](=O)[O-])s1 [Compound I-3]", "RESULT_UNIT": "µg/mL", "MIC": 0.0625}
{"COMPOUND": "CCCCCCCCCCCCCC(=O)Oc1ccccc1C(=O)Nc1ncc([N+](=O)[O-])s1 [Compound I-4]", "RESULT_UNIT": "µg/mL", "MIC": 0.0625}
{"COMPOUND": "CCCC(=O)Oc1ccccc1C(=O)Nc1ncc([N+](=O)[O-])s1 [Compound I-1]", "RESULT_UNIT": "µg/mL", "MIC": 0.0625}
{"COMPOUND": "CC(=O)Oc1ccccc1C(=O)Nc1ncc([N+](=O)[O-])s1 [nitazoxanide, Nitazoxanide]", "RESULT_UNIT": "µg/mL", "MIC": 0.125}

----------
- System: Clostridium difficile ATCC 700057
- PROTOCOL_DESCRIPTION: In vitro MIC, agar dilution, Clostridium difficile ATCC 700057
- Type: cell-based
- EXPERIMENTAL_PARAMETERS: Clostridioides difficile, ATCC700057; Brucella agar with supplements, anaerobic cultivation 48 h; read-out: MIC values, Clostridium difficile ATCC 700057

{"COMPOUND": "CC(=O)Oc1ccccc1C(=O)Nc1ncc([N+](=O)[O-])s1 [nitazoxanide, Nitazoxanide]", "MIC": "0.125 µg/mL"}
{"COMPOUND": "CCCCCCCC(=O)Oc1ccccc1C(=O)Nc1ncc([N+](=O)[O-])s1", "MIC": "0.25 µg/mL"}
{"COMPOUND": "CCCCCCCCCCCC(=O)Oc1ccccc1C(=O)Nc1ncc([N+](=O)[O-])s1", "MIC": "0.0625 µg/mL"}
{"COMPOUND": "CCCC(=O)Oc1ccccc1C(=O)Nc1ncc([N+](=O)[O-])s1", "MIC": "0.25 µg/mL"}
{"COMPOUND": "CCCCCCCCCCCCCC(=O)Oc1ccccc1C(=O)Nc1ncc([N+](=O)[O-])s1", "MIC": "0.125 µg/mL"}
